- tgt: PARS (Mus musculus)
- Sequence (P11103 whole entry): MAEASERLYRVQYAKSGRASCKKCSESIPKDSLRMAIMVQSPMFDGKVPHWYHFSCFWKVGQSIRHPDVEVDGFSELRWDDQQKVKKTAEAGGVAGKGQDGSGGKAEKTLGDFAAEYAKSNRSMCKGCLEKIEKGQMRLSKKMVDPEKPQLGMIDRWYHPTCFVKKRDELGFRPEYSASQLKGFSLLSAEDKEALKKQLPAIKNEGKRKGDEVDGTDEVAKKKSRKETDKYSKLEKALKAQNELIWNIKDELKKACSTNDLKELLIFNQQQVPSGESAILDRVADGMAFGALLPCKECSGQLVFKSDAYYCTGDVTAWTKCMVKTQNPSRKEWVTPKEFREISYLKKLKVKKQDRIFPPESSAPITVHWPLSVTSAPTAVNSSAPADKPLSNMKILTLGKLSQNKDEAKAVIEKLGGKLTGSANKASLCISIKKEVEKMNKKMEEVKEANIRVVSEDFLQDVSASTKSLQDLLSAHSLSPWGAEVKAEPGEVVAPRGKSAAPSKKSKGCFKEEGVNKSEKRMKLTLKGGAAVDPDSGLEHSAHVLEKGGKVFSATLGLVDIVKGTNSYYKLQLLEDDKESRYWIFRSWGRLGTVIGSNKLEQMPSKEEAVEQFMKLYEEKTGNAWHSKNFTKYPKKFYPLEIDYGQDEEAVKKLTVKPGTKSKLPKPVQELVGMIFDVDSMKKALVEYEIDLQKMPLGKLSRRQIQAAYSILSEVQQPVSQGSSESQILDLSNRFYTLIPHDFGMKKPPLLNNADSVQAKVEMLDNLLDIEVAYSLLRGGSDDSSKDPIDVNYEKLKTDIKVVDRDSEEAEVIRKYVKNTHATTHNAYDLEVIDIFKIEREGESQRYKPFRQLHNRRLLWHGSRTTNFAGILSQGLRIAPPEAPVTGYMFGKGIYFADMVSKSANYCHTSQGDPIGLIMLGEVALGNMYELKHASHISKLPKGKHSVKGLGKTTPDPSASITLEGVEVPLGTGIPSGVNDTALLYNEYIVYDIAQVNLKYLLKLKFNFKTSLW
- measurementNotes: PARS inhibition by nucleoside derivatives (in vitro inflammation models)
- Type: cell-based
- measurementParameters: read-out: Inhibition at 10 μM
propertyName: inhibition at 10 µM (%)
Provide only the numeric value, understood in %.

Q. # query: inhibition at 10 µM of entry Nc1ncnc2c1ncn2C1OC(CNC(=O)C(O)C(O)C(=O)Nc2cccc3c2CNC3=O)C(O)C1O (stereo not shown)
A. 75

Q. # query: inhibition at 10 µM of entry CC1(C)OC2C(CN3C(=O)c4ccccc4C3=O)OC(n3cnc4c(N)ncnc43)C2O1 (stereo not shown)
A. 21

Q. # query: inhibition at 10 µM of entry Nc1ncnc2c1ncn2C1OC(CNC(=O)CC(=O)Nc2cccc3c2CNC3=O)C(O)C1O (stereo not shown)
A. 64

Q. # query: inhibition at 10 µM of entry Nc1ncnc2c1ncn2C1OC(CNCC(=O)Nc2cccc3c2CNC3=O)C(O)C1O (stereo not shown)
A. 25

Q. # query: inhibition at 10 µM of entry CC1(C)OC2C(CNC(=O)CCC(=O)Nc3cccc4c3CNC4=O)OC(n3cnc4c(N)ncnc43)C2O1 (stereo not shown)
A. 29

Q. # query: inhibition at 10 µM of entry CC1(C)OC2C(CNC(=O)CCCC(=O)Nc3cccc4c3CNC4=O)OC(n3cnc4c(N)ncnc43)C2O1 (stereo not shown)
A. 29

Q. # query: inhibition at 10 µM of entry Nc1ncnc2c1ncn2C1OC(CNC(=O)C(F)(F)C(F)(F)C(F)(F)C(=O)Nc2cccc3c2CNC3=O)C(O)C1O (stereo not shown)
A. 55
